All figures here come from ChEMBL document CHEMBL3507680.

Test description: Human HepG2 cell viability assay in 384 well format
Format: toxicity, cell-based
Design: dose 125 nL, time 70.5 hour; concentration not given beside the values
Run conditions: HepG2 cells, read-out: Inhibition
Parameter: cytotoxicity at 70.5 h. Scope: all listed entries.

{"Molecule": "O=C1NCC[C@]12CN(Cc1nccs1)C[C@H]2c1ccccc1", "cytotoxicity at 70.5 h / %": -0.358}
{"Molecule": "COCC(=O)N1CCC(c2cncc(-c3cccc(F)c3)n2)CC1", "cytotoxicity at 70.5 h / %": -7.23}
{"Molecule": "O=C(CN1C(=O)CC2(CCCC2)C1=O)NCCc1nccs1", "cytotoxicity at 70.5 h / %": -14.1}
{"Molecule": "O=C(C1CCOCC1)N1CCC2(CC1)CN(c1ccsc1)C(=O)CO2", "cytotoxicity at 70.5 h / %": -6.23}
{"Molecule": "O=C(c1ccco1)N1CCCC2(CN(Cc3ccsc3)CCO2)C1 (stereo not drawn)", "cytotoxicity at 70.5 h / %": -5.26}
{"Molecule": "Cc1csc(CN(C)C2CCN(c3sccc3C#N)C2=O)n1 (stereo not drawn)", "cytotoxicity at 70.5 h / %": 16}
{"Molecule": "COc1ccc(NC(=O)c2cnc(C3CCN(C)CC3)nc2C)cc1", "cytotoxicity at 70.5 h / %": -2.26}
{"Molecule": "CSc1ccc(C)c(C(=O)Nc2c(C(N)=O)n[nH]c2C)c1", "cytotoxicity at 70.5 h / %": -5.86}
{"Molecule": "CCc1ccc(CN2CCN(C(=O)C(C)C)[C@@H]3CS(=O)(=O)C[C@@H]32)cc1", "cytotoxicity at 70.5 h / %": 14.5}
{"Molecule": "CC(C)(C)n1ncc2c1NC(=O)CSC2c1ccc2c(c1)OCO2 (stereo not drawn)", "cytotoxicity at 70.5 h / %": 2.42}
{"Molecule": "CC(C)(C)C(=O)N1CCCC1(C(=O)N1CCCC1)c1cnccn1 (stereo not drawn)", "cytotoxicity at 70.5 h / %": 18.9}
{"Molecule": "CCn1ncc2c1C(COC)N(C(=O)Cc1cccs1)CC2 (stereo not drawn)", "cytotoxicity at 70.5 h / %": -0.61}
{"Molecule": "COC1CCN(C(=O)CC2CCCC2)CC(=O)N(C)c2ccccc21 (stereo not drawn)", "cytotoxicity at 70.5 h / %": -0.0141}
{"Molecule": "O=C(CCc1cccnc1)N1CCC(c2cnccn2)CC1", "cytotoxicity at 70.5 h / %": -6.11}
{"Molecule": "CCC1COC2(CCN(C(=O)c3ccco3)CC2)C1 (stereo not drawn)", "cytotoxicity at 70.5 h / %": -9.86}
{"Molecule": "O=C1Nc2ccccc2NC12CCN(c1cccc(C(F)(F)F)n1)CC2", "cytotoxicity at 70.5 h / %": 52.4}
{"Molecule": "COCCCNC(=O)Nc1ccc(OCc2noc(C3CC3)n2)cc1", "cytotoxicity at 70.5 h / %": -11.8}
{"Molecule": "Cc1cc(C)nc(N2CCC(OCCN3CCCCC3)C2)n1 (stereo not drawn)", "cytotoxicity at 70.5 h / %": 8.57}
{"Molecule": "Cc1ccc(CN(CCCn2ccnc2)Cc2c[nH]nc2C(C)(C)C)s1", "cytotoxicity at 70.5 h / %": -0.375}
{"Molecule": "O=C(C1CCN(c2ccnc3ccc(Br)cc23)CC1)N1CCOCC1", "cytotoxicity at 70.5 h / %": 8.35}
{"Molecule": "CCCNC(=O)Cn1c(-n2nc(C)cc2C)nc(CCC)cc1=O", "cytotoxicity at 70.5 h / %": 3.03}
{"Molecule": "O=C(c1ccco1)N1CCO[C@@H]2CN(c3ccccc3)CC[C@@H]2C1", "cytotoxicity at 70.5 h / %": 29.2}
{"Molecule": "CCn1nc2c(cc1=O)CN(CCCOc1ccc(C#N)cc1)CC2", "cytotoxicity at 70.5 h / %": 10.4}

###

Test description: Human HepG2 cell viability assay in 384 well format
Format: toxicity, cell-based
Parameters: dose 125 nL, time 70.5 hour; concentration not given beside the values
Run conditions: HepG2 cells, read-out: Inhibition
Endpoint name: cytotoxicity at 70.5 h (%)

{"Molecule": "CCN(Cc1ccc2c(c1)OCCO2)C(=O)NCc1csc(C)n1", "Unit string": "%", "Recorded number": -9.9}
{"Molecule": "COc1ccc(OC)c(-n2cnnc2COC(C)C)c1", "Unit string": "%", "Recorded number": -0.141}
{"Molecule": "O=C(NC1CCCC1)c1nc(COc2ccc3c(c2)OCO3)no1", "Unit string": "%", "Recorded number": -9.86}
{"Molecule": "CCc1nc(C2CCCN2CC(=O)NCCOc2ccccc2)no1 (stereo unspecified)", "Unit string": "%", "Recorded number": 11.4}
{"Molecule": "Cc1cccc(N2CCN(C(=O)NC(C)c3nncn3C)CC2)c1C (stereo unspecified)", "Unit string": "%", "Recorded number": -3.82}
{"Molecule": "O=C(CN1CCOc2ccccc2C1)NCc1cc2n(n1)CCNC2", "Unit string": "%", "Recorded number": -2.02}
{"Molecule": "CC(=O)N1CCO[C@@H]2CN(S(=O)(=O)c3ccc(F)cc3)CC[C@@H]2C1", "Unit string": "%", "Recorded number": -6.92}
{"Molecule": "Cc1noc(C)c1C(=O)N1CCCN(Cc2nccn2C(C)C)CC1", "Unit string": "%", "Recorded number": 0.0993}
{"Molecule": "CC(C)NC(=O)[C@@H]1C[C@@H](N)CN1C(=O)CCSCc1ccccc1", "Unit string": "%", "Recorded number": 1.3}
{"Molecule": "CC(C)(CN1CCC(Cc2cccc(C(=O)O)c2)C1)N1CCOCC1 (stereo unspecified)", "Unit string": "%", "Recorded number": -9.68}
{"Molecule": "CCn1cc(NC(=O)NCC(C)N2CCCC2)cn1 (stereo unspecified)", "Unit string": "%", "Recorded number": 22.1}

###

Parameter: cytotoxicity at 70.5 h. Scope: all listed entries.
Test description: Human HepG2 cell viability assay in 384 well format
Format: toxicity, cell-based
Set-up: dose 125 nL, time 70.5 hour; concentration not given beside the values
Run conditions: HepG2 cells, read-out: Inhibition
Endpoint name: cytotoxicity at 70.5 h

{"Compound": "CC(C)NC(=O)c1cc2c(nc1N(C)C)CCN(S(=O)(=O)C1CC1)CC2", "Endpoint name": "cytotoxicity at 70.5 h", "Result": "7.69%"}
{"Compound": "CCn1cc(S(=O)(=O)NC2(CN3CCOCC3)CCCCC2)c(C)n1", "Endpoint name": "cytotoxicity at 70.5 h", "Result": "-0.203%"}
{"Compound": "Cc1nn(C)c(C)c1C1CCCN1Cc1noc(C2CC2)n1 (stereo unspecified)", "Endpoint name": "cytotoxicity at 70.5 h", "Result": "7.14%"}
{"Compound": "Cc1noc2ncc(S(=O)(=O)Nc3cc(CC(C)(C)C)[nH]n3)cc12", "Endpoint name": "cytotoxicity at 70.5 h", "Result": "3.8%"}
{"Compound": "Cc1ccc(CCN[C@@H]2c3ccccc3C3(CCNCC3)[C@H]2O)s1", "Endpoint name": "cytotoxicity at 70.5 h", "Result": "-2.07%"}
{"Compound": "CCOC(C)C(=O)NCCNS(C)(=O)=O (stereo unspecified)", "Endpoint name": "cytotoxicity at 70.5 h", "Result": "-6.01%"}
{"Compound": "CC(C)(C)NC(=O)NC(=O)CNC(C)(C)c1ccc2c(c1)OCCO2", "Endpoint name": "cytotoxicity at 70.5 h", "Result": "-16.2%"}
{"Compound": "Cc1nc(C2(NCC(=O)NC(=O)Nc3ccccc3)CCCCC2)no1", "Endpoint name": "cytotoxicity at 70.5 h", "Result": "-0.595%"}
{"Compound": "O=C(CCNc1ncccn1)NCCc1ccc(Cl)s1", "Endpoint name": "cytotoxicity at 70.5 h", "Result": "-3.42%"}
{"Compound": "CC(CNC(=O)NCc1ccc2c(c1)OCO2)CC1(C)OCCO1 (stereo unspecified)", "Endpoint name": "cytotoxicity at 70.5 h", "Result": "-5.24%"}
{"Compound": "O=C(NCC(F)(F)F)c1nnn(-c2ccccc2)c1C(F)(F)F", "Endpoint name": "cytotoxicity at 70.5 h", "Result": "-4.56%"}

###

Parameter: cytotoxicity at 70.5 h. Scope: all listed entries.
Test description: Human HepG2 cell viability assay in 384 well format
Format: toxicity, cell-based
Design: dose 125 nL, time 70.5 hour; concentration not given beside the values
Run conditions: HepG2 cells, read-out: Inhibition
Endpoint name: cytotoxicity at 70.5 h

{"Molecule": "Cc1cc(N2CCC(c3ncc[nH]3)CC2)cc(C)n1", "Endpoint name": "cytotoxicity at 70.5 h", "Result": "-3.01%"}
{"Molecule": "CC(C)(C)C(Cn1ccnc1)NC(=O)NCc1ccco1 (stereo unspecified)", "Endpoint name": "cytotoxicity at 70.5 h", "Result": "-7.73%"}
{"Molecule": "Cc1ccccc1NS(=O)(=O)c1cc2c(c(C(=O)O)c1)OCCO2", "Endpoint name": "cytotoxicity at 70.5 h", "Result": "6.41%"}
{"Molecule": "CCC(C)NC(=O)c1ccc(NC(=O)CCCn2cncn2)c(C)c1 (stereo unspecified)", "Endpoint name": "cytotoxicity at 70.5 h", "Result": "14.8%"}
{"Molecule": "Cc1nc2ccc(C(=O)N3CCn4c(nnc4C4CC4)C3)cc2nc1C", "Endpoint name": "cytotoxicity at 70.5 h", "Result": "-4.74%"}
{"Molecule": "CC(C1CC1)N(CC(=O)NC(=O)NC1CC1)C1CC1 (stereo unspecified)", "Endpoint name": "cytotoxicity at 70.5 h", "Result": "-3.17%"}
